target: NLRP3 (Homo sapiens); construct: Seed THP-1 cells (25,000 cells/well) containing 1.0 μg/ml LPS; experiment: THP-1 cells pyroptosis assay; conditions: LPS 1.0 μg/ml, nigericin 5 μM, resazurin readout
Sequence (Q96P20 whole entry): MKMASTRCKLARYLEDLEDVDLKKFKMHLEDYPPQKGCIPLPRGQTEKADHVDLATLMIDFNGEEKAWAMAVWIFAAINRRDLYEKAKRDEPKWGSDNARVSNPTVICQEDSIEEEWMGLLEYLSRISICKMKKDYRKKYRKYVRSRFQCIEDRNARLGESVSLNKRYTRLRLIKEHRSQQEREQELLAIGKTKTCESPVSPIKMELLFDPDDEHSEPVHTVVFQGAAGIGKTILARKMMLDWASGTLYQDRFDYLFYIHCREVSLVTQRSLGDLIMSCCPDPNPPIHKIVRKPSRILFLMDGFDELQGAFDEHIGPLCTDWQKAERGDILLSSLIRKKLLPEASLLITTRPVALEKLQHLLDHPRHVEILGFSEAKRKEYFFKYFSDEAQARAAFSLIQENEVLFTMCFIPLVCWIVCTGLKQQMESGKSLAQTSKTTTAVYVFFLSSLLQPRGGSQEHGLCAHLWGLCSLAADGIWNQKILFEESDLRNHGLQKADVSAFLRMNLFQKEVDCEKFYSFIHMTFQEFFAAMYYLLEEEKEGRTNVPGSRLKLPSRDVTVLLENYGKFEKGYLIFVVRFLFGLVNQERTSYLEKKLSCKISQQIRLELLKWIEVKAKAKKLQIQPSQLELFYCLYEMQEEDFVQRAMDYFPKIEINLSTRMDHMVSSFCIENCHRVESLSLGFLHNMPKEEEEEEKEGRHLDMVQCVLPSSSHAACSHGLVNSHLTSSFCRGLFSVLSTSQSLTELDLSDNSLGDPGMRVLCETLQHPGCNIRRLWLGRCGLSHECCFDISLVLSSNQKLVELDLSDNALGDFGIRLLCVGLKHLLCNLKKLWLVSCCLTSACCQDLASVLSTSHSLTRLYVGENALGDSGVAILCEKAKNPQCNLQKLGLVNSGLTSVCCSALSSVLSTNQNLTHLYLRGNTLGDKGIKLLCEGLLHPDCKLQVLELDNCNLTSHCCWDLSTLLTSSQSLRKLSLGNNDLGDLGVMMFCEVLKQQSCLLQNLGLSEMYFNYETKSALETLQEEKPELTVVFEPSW
observation.type: IC50

Use these answered entries as a reference point.
smiles.str: CN(Cc1csc(-c2ccccc2)n1)S(=O)(=O)NC(=O)Nc1c2c(cc3c1CCC3)CCC2
observation.type: IC50
value.measured: < 10 µM
//
smiles.str: O=C(Nc1c2c(cc3c1CCC3)CCC2)NS(=O)(=O)NCc1ccc(Cl)cc1F
observation.type: IC50
value.measured: < 10 µM
//
smiles.str: COc1cc(C)c(NS(=O)(=O)NC(=O)Nc2c3c(cc4c2CCC4)CCC3)cn1
observation.type: IC50
value.measured: < 1 µM

Please indicate IC50 recorded for `O=C(Nc1c2c(cc3c1CCC3)CCC2)NS(=O)(=O)NCc1ccncc1`
< 50 µM

---

molecular target: NLRP3 (Homo sapiens); construct: Seed THP-1 cells (25,000 cells/well) containing 1.0 μg/ml LPS; experiment: THP-1 cells pyroptosis assay; conditions: LPS 1.0 μg/ml, nigericin 5 μM, resazurin readout
pIC50: −log10 of the molar value.
observation.type: pIC50

smiles.str: Cc1nccn1-c1ccc(NS(=O)(=O)NC(=O)Nc2c3c(cc4c2CCC4)CCC3)cc1
value.measured: > 5.00
//
smiles.str: O=C(Nc1c2c(cc3c1CCC3)CCC2)NS(=O)(=O)NCCc1nccs1
value.measured: > 5.00
//
smiles.str: O=C(Nc1c2c(cc3c1CCC3)CCC2)NS(=O)(=O)N(Cc1ccccc1)Cc1nccs1
value.measured: > 6.00
//
smiles.str: O=C(Nc1c2c(cc3c1CCC3)CCC2)NS(=O)(=O)N1CCc2ccccc21
value.measured: > 5.00
//
smiles.str: CCN(C)C1(CNS(=O)(=O)NC(=O)Nc2c3c(cc4c2CCC4)CCC3)CCCCC1
value.measured: > 5.00
//
smiles.str: O=C(Nc1c2c(cc3c1CCC3)CCC2)NS(=O)(=O)NCCc1nc(-c2cccnc2)no1
value.measured: > 5.00
//
smiles.str: Cc1ccc(OCCNS(=O)(=O)NC(=O)Nc2c3c(cc4c2CCC4)CCC3)cc1
value.measured: > 5.00

Read the next record carefully.
Identify measured pIC50 associated with `O=C(Nc1c2c(cc3c1CCC3)CCC2)NS(=O)(=O)N(CCN1CCOCC1)Cc1ccco1`
> 4.30

---

molecular target: NLRP3 (Homo sapiens); construct: Seed THP-1 cells (25,000 cells/well) containing 1.0 μg/ml LPS; assay: THP-1 cells pyroptosis assay; settings: LPS 1.0 μg/ml, nigericin 5 μM, resazurin readout
observation.type: IC50

smiles.str: CCn1c(=O)n(CC)c2cc(NS(=O)(=O)NC(=O)Nc3c4c(cc5c3CCC5)CCC4)c(C)cc21
value.measured: < 10 µM

// fetch IC50 given entry `O=C(Nc1c2c(cc3c1CCC3)CCC2)NS(=O)(=O)NCCN1CCc2ccccc21`
< 10 µM

Tell me measured IC50 for `CC(=O)c1cc2c(cc1NS(=O)(=O)NC(=O)Nc1c3c(cc4c1CCC4)CCC3)OCO2` please.
< 10 µM
